Tested on: human PBMCs
Test: cells
Conditions: PBMC, 24 h, read-out: EC50(μM), IL-10
ENDPOINT_LABEL: EC50
Express your answer as a number followed by its unit.

So what does the record say about EC50 for Nc1ncnc2c1ncn2[C@@H]1O[C@@H]2COP(O)(=S)O[C@@H]3[C@H](O)[C@@H](COP(O)(=S)O[C@H]2[C@H]1O)O[C@H]3n1cnc2c(N)ncnc21 (stereo partly shown) [ADU-S100] ?
0.8 µM

* * *

Test system: murine splenocytes
Test: cells
Set-up: species or system mouse splenocytes
Settings: Mus musculus, Splenocyte, 24 h, read-out: EC50 (μM), RANTES
ENDPOINT_LABEL: EC50 (µM)
Field: numeric (µM). Do not append units.

Which value of EC50 has been reported for Nc1ncnc2c1ncn2[C@@H]1O[C@@H]2COP(O)(=S)O[C@@H]3[C@H](O)[C@@H](COP(O)(=S)O[C@H]2[C@H]1O)O[C@H]3n1cnc2c(N)ncnc21 (stereo partly shown) [ADU-S100] in the records?
0.1
